Assay method text: Lipophilicity, log D at pH 7.4 by HPLC method
Test settings: buffer
Experimental endpoint: logD

• COc1ccc(C(=O)C2CN=C3C=CC=CN3C2)cc1 (stereo not given) = 1.5
• CC1=CC2=NCC(C(=O)c3ccc(-c4ccc(Br)cc4)cc3)CN2C=C1.[O-][Cl+3]([O-])([O-])O (stereo not given) = 2.7
• CC1=CC2=NCC(C(=O)c3ccc4cc(C)ccc4c3)CN2C(C)=C1.[O-][Cl+3]([O-])([O-])O (stereo not given) = 2.2
• COc1ccc(C(=O)C2CN=C3C=CC=C(C)N3C2)cc1OC.[O-][Cl+3]([O-])([O-])O (stereo not given) = 1.5
• COc1ccc2cc(C(=O)C3CN=C4C=CC=C(C)N4C3)ccc2c1 (stereo not given) = 1.9
• COc1ccc(C(=O)C2CN=C3C=CC=CN3C2)cc1OC (stereo not given) = 1.4
• CC1=CC=CC2=NCC(C(=O)c3ccc4cc(C)ccc4c3)CN12 (stereo not given) = 2.1
• CC1=CC=CC2=NCC(C(=O)c3ccccc3)CN12 (stereo not given) = 1.5
• COc1ccc2cc(C(=O)C3CN=C4C=C(C)C=C(C)N4C3)ccc2c1 (stereo not given) = 1.9
• O=C(c1ccc(Cl)c(Cl)c1)C1CN=C2C=CC=CN2C1.[O-][Cl+3]([O-])([O-])O (stereo not given) = 1.8

###

Experimental target: Nitric oxide synthase 3 (Bos taurus) (UniProt P29473)
Sequence (P29473 whole entry): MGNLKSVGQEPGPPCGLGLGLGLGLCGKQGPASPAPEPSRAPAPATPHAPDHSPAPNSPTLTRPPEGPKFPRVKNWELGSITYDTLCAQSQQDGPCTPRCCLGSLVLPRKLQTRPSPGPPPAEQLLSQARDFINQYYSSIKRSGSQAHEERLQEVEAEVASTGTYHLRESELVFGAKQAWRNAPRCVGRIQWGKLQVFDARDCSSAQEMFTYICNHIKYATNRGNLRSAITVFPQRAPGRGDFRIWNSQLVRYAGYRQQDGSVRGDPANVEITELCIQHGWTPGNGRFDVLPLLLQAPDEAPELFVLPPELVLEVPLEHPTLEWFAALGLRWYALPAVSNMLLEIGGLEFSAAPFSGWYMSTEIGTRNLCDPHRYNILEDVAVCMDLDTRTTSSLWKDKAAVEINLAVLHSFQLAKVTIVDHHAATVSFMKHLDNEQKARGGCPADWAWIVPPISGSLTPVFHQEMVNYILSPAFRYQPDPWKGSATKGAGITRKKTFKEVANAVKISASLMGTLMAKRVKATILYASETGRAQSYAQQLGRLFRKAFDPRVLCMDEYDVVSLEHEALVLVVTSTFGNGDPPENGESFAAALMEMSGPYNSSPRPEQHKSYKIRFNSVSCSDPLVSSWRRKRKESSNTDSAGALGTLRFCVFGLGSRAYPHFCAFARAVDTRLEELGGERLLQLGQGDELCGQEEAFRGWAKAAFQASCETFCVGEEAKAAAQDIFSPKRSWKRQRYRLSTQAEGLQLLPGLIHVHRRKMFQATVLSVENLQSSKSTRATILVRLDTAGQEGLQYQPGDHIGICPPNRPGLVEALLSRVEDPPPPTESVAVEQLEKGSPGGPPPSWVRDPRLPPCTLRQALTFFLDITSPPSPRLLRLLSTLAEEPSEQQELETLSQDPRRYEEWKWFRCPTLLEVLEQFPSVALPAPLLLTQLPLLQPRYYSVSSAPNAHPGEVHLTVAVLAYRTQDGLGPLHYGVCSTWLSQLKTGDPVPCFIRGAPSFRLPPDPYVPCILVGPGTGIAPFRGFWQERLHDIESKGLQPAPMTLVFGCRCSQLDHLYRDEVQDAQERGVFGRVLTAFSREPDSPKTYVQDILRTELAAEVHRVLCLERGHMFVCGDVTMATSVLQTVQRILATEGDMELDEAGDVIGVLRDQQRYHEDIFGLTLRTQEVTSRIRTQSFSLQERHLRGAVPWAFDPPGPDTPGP
Assay method text: Inhibition of bovine eNOS expressed in insect Sf9 cells assessed as residual activity at 100 uM by Griess assay relative to control
Please assign a class to every record based on measured Activity, with ranges category 1 (below 70%), category 2 (70% to below 90%), category 3 (90% or more)

* CC1=CC2=NCC(C(=O)c3ccc(-c4ccccc4)cc3)CN2C=C1 (centres undefined) | category 1
* CC1=CC=CC2=NCC(C(=O)c3ccc4ccccc4c3)CN12 (centres undefined) | category 2
* COc1ccc2cc(C(=O)C3CN=C4C=C(C)C=CN4C3)ccc2c1 (centres undefined) | category 2
* O=C(c1ccc(Cl)c(Cl)c1)C1CN=C2C=CC=CN2C1.[O-][Cl+3]([O-])([O-])O (centres undefined) | category 2
* O=C(c1ccc2ccccc2c1)C1CN=C2C=CC=CN2C1 (centres undefined) | category 2
* CC(=N)NCc1cccc(CN)c1 | category 3
* CC1=CC=CC2=NCC(C(=O)c3ccccc3)CN12 (centres undefined) | category 3
* CC1=CC2=NCC(C(=O)c3ccc(F)cc3)CN2C=C1 (centres undefined) | category 1
* CCOc1ccc(C(=O)C2CN=C3C=C(C)C=CN3C2)cc1 (centres undefined) | category 2
* CC1=CC=CC2=NCC(C(=O)c3ccc(Br)cc3)CN12 (centres undefined) | category 3
* CC1=CC2=NCC(C(=O)c3ccc4ccccc4c3)CN2C=C1 (centres undefined) | category 1
* O=C(c1ccc(Br)cc1)C1CN=C2C=CC=CN2C1 (centres undefined) | category 2
* CC1=CC2=NCC(C(=O)c3ccc(Cl)cc3)CN2C=C1 (centres undefined) | category 1
* COc1ccc(C(=O)C2CN=C3C(C)=CC=CN3C2)cc1OC (centres undefined) | category 3
* CCSC(=N)N | category 1
* CC1=CC2=NCC(C(=O)c3ccc4cc(C)ccc4c3)CN2C=C1.[O-][Cl+3]([O-])([O-])O (centres undefined) | category 1
* CCCNC(=N)NCCC[C@H](N)C(=O)O | category 3
* CC1=CC2=NCC(C(=O)c3ccccc3)CN2C=C1 (centres undefined) | category 1
